FYI, the data here is from paper PMC3867298.

assay: Plasma pharmacokinetics in patients; format: in vivo, human; conditions: human, plasma, oral, 160 mg/m2, Tmax, day 28, 160 mg/m^2, n=5, mean ± SD
readout: Tmax (h)

> print(dat)
                                   molecule  readout  valueunits  endpointvalue
1  Cc1cc(Nc2cc(N3CCN(C)CC3)nc(/C=C/c3ccccc3)n2)n[nH]1 [ENMD-2076]     Tmax           h            4.4

* * *

test: Plasma pharmacokinetics in patients; assay type: in vivo, human; details: human, plasma, oral, 60 mg/m2, t1/2, day 28, 60 mg/m^2, n=6, mean ± SD
readout: half-life (h)

> print(dat)
                                 smilescode    readout  valueunits  endpointvalue
1  Cc1cc(Nc2cc(N3CCN(C)CC3)nc(/C=C/c3ccccc3)n2)n[nH]1  half-life           h           53.1
